# experimentalProtocol: growth suppression of beta-catenin knockout HCT116, pilot screen, human colon tumor cells (AID 823);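 note: 0% = wells killed by 20 µM Hyamine and 100% = untreated DMSO cell wells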
# details: CellTiter-Glo, 60 h, at 10 µM, active compounds read low
Records with an inconclusive call do not appear. Activity calls are given as the source filed them.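 Rule for the calls: active = cell viability at or below a set limit in both duplicate runs, the limit being the all-compound median minus 4 SD (cut at about 23% in these data, passing the limit was not always enough); inconclusive = no clear call, values can overlap the other calls; inactive = the rest.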
Items are presented alongside their recorded viability.
metricName: viability

molecule	observed
CCOc1ccc(CC(=O)Nc2c(C(N)=O)oc3ccc(Br)cc23)cc1OCC	61% (inactive)
O=C(Cc1n[nH]c(=O)c2ccccc12)NCc1ccccn1	103% (inactive)
CCOc1ccc(NC(=O)N(C2CCCCC2)C2CCN(C(C)=O)CC2)cc1	102% (inactive)
c1ccc2c(c1)nc(NCC1CCCO1)c1nnnn12 (stereo not given)	101% (inactive)
CC(C)c1nnc(NC(=O)c2ccc(S(=O)(=O)N3CCOCC3)cc2)s1	104% (inactive)

---

Items are presented alongside their recorded viability.
# experimentalProtocol: growth suppression of PTEN-deleted HCT116, pilot screen, cell-based, HCT116 clonal line, CellTiter-Glo (AID 824);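 note: 0% = 20 µM Hyamine control and 100% = vehicle cell control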
# details: 60 h, at 10 µM, active compounds read low
Records with an inconclusive call do not appear.
metricName: viability (%)

compound	metricName	unitsLabel	observed
CC(CCc1ccccc1)NC(=O)c1nnc(Cc2ccc(F)cc2)o1 (stereo not given)	viability	%	95.2
CCOC(=O)CN1CC23C=CC(O2)C(C(=O)N2CCN(c4ccc(F)cc4)CC2)C3C1=O (stereo not given)	viability	%	93.2
Cn1c(=O)[nH]c(=O)c2c1nc(NC1CCCCC1)n2CCO	viability	%	97.9
COC(=O)N1CC(C)N(C(=O)OC)CC1C (stereo not given)	viability	%	95.6
COc1ccc(-c2cc(C(=O)O)c3ccccc3n2)c(OC)c1	viability	%	89.3
COc1ccc(OC)c(CCNC(=O)Cn2sc3nc(C)cc(C)c3c2=O)c1	viability	%	4.4
Cc1nc(CNS(=O)(=O)c2ccc3ccccc3c2)cs1	viability	%	87.9
O=C(NCCCn1ccnc1)c1cc(C2CC2)on1	viability	%	103
C=CCSC1=N/C(=C\c2ccsc2)C(=O)S1	viability	%	93
O=C1c2ccccc2C(=O)N1CCCCN(C(=O)c1ccco1)c1ccc(Cl)cc1	viability	%	91.1
CC(C)n1c(C(O)c2ccc3c(c2)OCO3)nc2ccccc21 (stereo not given)	viability	%	90.9
Cc1c(NC(=O)c2ccc(F)cc2)c(=O)n(-c2ccccc2)n1C	viability	%	96.6
O=C(COc1cc(=O)n2c(n1)SCCC2)c1ccccc1	viability	%	92.7
CC(=O)NC(CCS(C)(=O)=O)C(=O)Nc1cc(C)ccc1C (stereo not given)	viability	%	94.3
CCOC(=O)N1CCN(C(=O)Cn2ncc3ccccc32)CC1	viability	%	89.4

---

# experimentalProtocol: growth suppression of beta-catenin knockout HCT116, pilot screen, human colon tumor cells (AID 823);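 note: 0% = wells killed by 20 µM Hyamine and 100% = untreated DMSO cell wells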
# details: CellTiter-Glo, 60 h, at 10 µM, active compounds read low
Inconclusive results are not listed.
metricName: viability (%)

compound	metricName	unitsLabel	observed
O=S(=O)(NCC(c1cccnc1)N1CCN(c2ccc(F)cc2)CC1)c1ccc(F)cc1 (stereo not drawn)	viability	%	87.4
CCCCNC(=O)CS(=O)Cc1nc(-c2cccc(Cl)c2)oc1C (stereo not drawn)	viability	%	92.2
CCOc1cc(C(=O)NCCN2CCOCC2)cc(OCC)c1OCC	viability	%	91.3

---

Items are presented alongside their recorded inhibition.
# experimentalProtocol: inhibitors of the yeast RAM network, pilot screen, dse1pr::URA3 reporter, 5-FOA selection (AID 869);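 note: 0% = DMSO wells with no growth and 100% = 10 µM 1-NA-PP1 with full growth; RAM network block rescues cells from 5-FOA so hits raise OD615 growth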
# details: S. cerevisiae dse1pr::URA3 5-FOA growth, OD615, 2 d; at 10 µM; active compounds read high; strain carries analog-sensitive mutant Cbk1 kinase

structureSmiles	inhibition / %
CCOc1ccc(OCC)c(NC(=O)CN2CCC(NC(=O)c3cccc(F)c3)CC2)c1	2.31
O=C(CSc1nc2cc(Cl)ccc2s1)c1ccco1	-0.07
CCC(=O)Nc1ccccc1C(=O)N1CCN(Cc2ccccc2)CC1	1.6
O=C1CNC(=O)/C1=C\N1CCN(C(c2ccccc2)c2ccccc2)CC1	2.48

---

# experimentalProtocol: inhibitors of the yeast RAM network, pilot screen, dse1pr::URA3 reporter, 5-FOA selection (AID 869);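 note: 0% = DMSO wells with no growth and 100% = 10 µM 1-NA-PP1 with full growth; RAM network block rescues cells from 5-FOA so hits raise OD615 growth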
# details: S. cerevisiae dse1pr::URA3 5-FOA growth, OD615, 2 d; at 10 µM; active compounds read high; strain carries analog-sensitive mutant Cbk1 kinase
Activity calls are given as the source filed them.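 Rule for the calls: active = inhibition over a set limit, the all-compound mean plus 3 SD, in both replicate runs; inconclusive = over that limit in just one replicate run; inactive = at or under that limit in both runs.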
Items are presented alongside their recorded inhibition.

molecule	inhibition
Oc1c(C(c2ccc(F)cc2)N2CCc3ccccc3C2)sc2ncnn12 (centres undefined)	2.67% (inactive)
CCCC(=O)N(Cc1cc2cc(C)ccc2[nH]c1=O)c1ccccc1OC	1.04% (inactive)
C=CCSc1nnc(-c2cc(Br)ccc2N)c(=O)[nH]1	0.7% (inactive)
COc1ccc(NC(=O)Nc2cccc(OC)c2)cc1	1.02% (inactive)

---

Items are presented alongside their recorded viability.
# experimentalProtocol: growth suppression of beta-catenin knockout HCT116, pilot screen, human colon tumor cells (AID 823);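 note: 0% = wells killed by 20 µM Hyamine and 100% = untreated DMSO cell wells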
# details: CellTiter-Glo, 60 h, at 10 µM, active compounds read low
Inconclusive results are not listed.

molecule	viability (%)
Cc1cc(-n2nc(C)cc2C)nc(NS(=O)(=O)c2ccccc2)n1	94.8
COc1ccc(O)c(-c2[nH]ncc2C(=O)c2ccccc2C)c1	100
CCOC(=O)C1=C(C)Nc2nc(C)nn2C1c1ccc(C)cc1 (configuration not stated)	100
O=C(CSc1nc2c([nH]c3ccccc32)c(=O)n1-c1cccc(Cl)c1)N1CCOCC1	79.6
COc1ccc(N(CC(=O)N2CCCCC2)S(=O)(=O)c2c(C)nn(C)c2C)cc1	105
CC(=O)NCCc1cc2ccc(C)c(C)c2[nH]c1=O	103
CCCn1c(=S)[nH]c2cc(C(=O)NCC3CCCO3)ccc2c1=O (configuration not stated)	104
CCc1ccc(N2C(=O)c3sc4nnc(C)c(=O)n4c3C2=O)cc1	87.9
CCN1CCN(Cc2ccc(NC(=O)Nc3ccc(OC)cc3)cc2)CC1	104
COc1ccc(NC(=O)Nc2cccc3cccnc23)cc1	88.5
CCCC(=O)N(Cc1cc2cc(C)ccc2[nH]c1=O)c1ccccc1OC	80.7
Cn1c(Cn2c(=O)sc3ccccc32)nnc1SCC(=O)Nc1ccc(Cl)cc1	98.6
CCOc1cccc(C2c3c(oc4ccccc4c3=O)C(=O)N2c2ccccn2)c1 (configuration not stated)	95.6
CCOC(=O)c1c(N=CN(C)C)c(C#N)n2c1CCC2	101
Cc1ccc(C2/C(=C(/O)c3ccc(Br)cc3)C(=O)C(=O)N2Cc2ccco2)o1 (configuration not stated)	55
CN1CCN(C(=O)c2cn(C)c3ccc(S(=O)(=O)N(C)C4CCCCC4)cc3c2=O)CC1	102
CCOC(=O)CN1CC23C=CC(O2)C(C(=O)NC2CCCCCC2)C3C1=O (configuration not stated)	99.3
COCCCNC(=O)Cn1ncc2ccsc2c1=O	107
COC(=O)c1ccc(C2c3c(oc4ccccc4c3=O)C(=O)N2CCCN2CCOCC2)cc1 (configuration not stated)	87.6
COc1ccc(C(=O)Nc2c(N)nc(SCC(=O)N3CCCCCC3)[nH]c2=O)cc1OC	96.8
COc1ccc(C2C(C(=O)Nc3cccnc3)=C(C)Nc3nc(-c4ccco4)nn32)cc1 (configuration not stated)	108
Cn1c(C(=O)NCCCN2CCOCC2)cc2c(=O)n(C)c3ccccc3c21	100
Cc1cc(C(F)(F)F)nc(NCc2ccc(F)cc2)n1	90.5
COc1ccc(N2CC(C(=O)Nc3ccc(S(=O)(=O)Nc4nc(C)cc(C)n4)cc3)CC2=O)cc1 (configuration not stated)	100
CCn1cc(C(=O)Nc2ccc3c(c2)OCCO3)c2cc(OC)c(OC)cc2c1=O	101
Cn1cccc1Cc1nnc(SCC(=O)Nc2ccc3c(c2)OCO3)n1-c1ccc(F)cc1	90.4
COc1ccccc1C(=O)Nc1nnc(-c2ccc(Cl)cc2)o1	103
O=C1c2ccccc2C(O)N1c1ccc(Cl)cc1 (configuration not stated)	93.4
Cn1c(=O)c2c(SCC(=O)c3ccccc3)nc(C3CC3)nc2n(C)c1=O	76.8
Cc1ccc(Cl)cc1NC(=O)COC(=O)C1CCCC1	99.1
O=C(O)CCC(=O)NCc1ccc2[nH]c3c(c2c1)CCCC3	101
CCOC(=O)C(C)n1cnc2c(nnn2-c2cccc(Cl)c2)c1=O (configuration not stated)	102

---

Items are presented alongside their recorded growth inhibition.
# experimentalProtocol: Restrictive medium S. cerevisiae growth inhibition, OD615, pilot screen of yeast lifespan reduction project, restrictive growth control (AID 706);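 note: modified DeaD lifespan yeast strain shifted to restrictive glucose medium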
# details: OD615, 48 h, at 10 µM, active compounds read high

molecule	unitsLabel	growth inhibition
Cc1cc2oc3c(c(=O)c2cc1C)C(c1ccc(C(C)C)cc1)N(CCCN1CCOCC1)C3=O (configuration not stated)	%	-2.79
O=C(C1CCCN1S(=O)(=O)c1cccc2cccnc12)N1CCc2ccccc2C1 (configuration not stated)	%	-13.1
c1ccc(-n2cnnc2SCc2cn3ccccc3n2)cc1	%	20.6
Cc1ccc(C(C(=O)NC2CCCC2)N2CCCCC2)cc1 (configuration not stated)	%	-13.5
Cc1cccc(-n2ncc3c(N4CCOCC4)ncnc32)c1	%	17.2
CC(=O)Nc1c(-c2ccccc2)nc2ncccn12	%	-5.57
CC(=O)NC(CCS(C)(=O)=O)C(=O)Nc1cc(C)ccc1C (configuration not stated)	%	-20
Cn1c(=O)oc2cc(S(=O)(=O)NC(Cc3ccccc3)C(=O)N3CCCCC3)ccc21 (configuration not stated)	%	-11.9
COc1cccc(-n2c(Cc3cc(=O)[nH]c(=O)[nH]3)nnc2SCC(=O)N2CCCCCC2)c1	%	-12.1
COc1ccc(N(C)S(=O)(=O)c2cccc(C(=O)NC3=NCCS3)c2)cc1	%	-1.7
COCCN1Cc2cccc(C(=O)NCc3ccccn3)c2C1=O	%	-0.385
CCSc1nc2c(c(=O)[nH]1)C(C(C)C)C(C#N)=C(N)O2 (configuration not stated)	%	-13
Cc1c(C(=O)NCC2CCCO2)sc2nc(-c3ccc(F)cc3)cn12 (configuration not stated)	%	0.065
COc1ccc(N(CC(=O)Nc2nccs2)S(=O)(=O)c2c(C)nn(C)c2C)cc1	%	-6.82
CC(C)(Oc1ccc(Cl)cc1)C(=O)Nc1cccnc1	%	-6.65
Cc1ccc(CN2CCNC(=O)C2CC(=O)O)o1 (configuration not stated)	%	2.8
Cc1cc(Nc2ccc(Br)cc2)n2nc(C)nc2n1	%	-2.33
